Origin of values: patent US12202835B2

The compounds listed here are annotated with their pIC50.
# Tested on: Ba/F3 LMNA-NTRK1-G595R cells
# PROTOCOL TEXT: Assay for inhibiting the proliferation of Ba/F3 LMNA-NTRK1-G595R cells (CCK-8)
# Format: cell-based
# MEASUREMENT CONDITIONS: Mus musculus, BaF3
pIC50: −log10 of the molar value.

Answered examples (10):
CC(C)n1cc(C(=O)Nc2ccc(Oc3ccnc4cc(OCCCN5CCOCC5)c5c(c34)OCCO5)c(F)c2)c(=O)n(-c2ccc(F)cc2)c1=O : 6.00 to 6.70
COc1cc2nccc(Oc3cc(C)c(NC(=O)c4cn(C)c(=O)n(-c5ccc(F)cc5)c4=O)cc3F)c2c2c1OCCO2 : ≥ 7.30
Cn1cc(C(=O)Nc2ccc(Oc3ccnc4cc(OCCCN5CCOCC5)c5c(c34)OCCO5)c(F)c2)c(=O)n(-c2ccc(F)cc2)c1=O : 6.70 to 7.30
Cn1cc(C(=O)Nc2ccc(Oc3ccnc4cc(OCC(C)(C)O)c5c(c34)OCCO5)cc2Cl)c(=O)n(-c2ccc(F)cc2)c1=O : 6.70 to 7.30
Cn1cc(C(=O)Nc2ccc(Oc3ccnc4ccc5c(c34)OCCO5)cc2)c(=O)n(-c2ccc(F)cc2)c1=O : < 6.00
COCCOc1cc2nccc(Oc3ccc(NC(=O)c4cn(C)c(=O)n(-c5ccc(F)cc5)c4=O)cc3)c2c2c1OCCO2 : 6.70 to 7.30
Cn1cc(C(=O)Nc2ccc(Oc3ncnc4cc(OCCCN5CCOCC5)c5c(c34)OCCO5)c(F)c2)c(=O)n(-c2ccc(F)cc2)c1=O : 6.00 to 6.70
Cc1cc(Oc2ccnc3ccc4c(c23)OCCO4)c(F)cc1NC(=O)c1cn(C)c(=O)n(-c2ccc(F)cc2)c1=O : 6.70 to 7.30
CCn1cc(C(=O)Nc2cc(F)c(Oc3ccnc4cc(OC)c5c(c34)OCCO5)cc2C)c(=O)n(-c2ccc(F)cc2)c1=O : ≥ 7.30
CCn1cc(C(=O)Nc2ccc(Oc3ccnc4cc(OCCCN5CCOCC5)c5c(c34)OCCO5)c(F)c2)c(=O)n(-c2ccc(F)cc2)c1=O : 6.00 to 6.70

Item under review: "Cn1cc(C(=O)Nc2ccc(Oc3ccnc4cc(OCCCN5CCCCC5)c5c(c34)OCCO5)cc2Cl)c(=O)n(-c2ccc(F)cc2)c1=O" . Reported pIC50?
≥ 7.30

Try this compound next: "CCn1cc(C(=O)Nc2ccc(Oc3ccnc4ccc5c(c34)OCCO5)cc2)c(=O)n(-c2ccc(F)cc2)c1=O"
< 6.00

What do we get for "COCCOc1cc2nccc(Oc3ccc(NC(=O)c4cn(C(C)C)c(=O)n(-c5ccc(F)cc5)c4=O)cc3F)c2c2c1OCCO2" ?
6.70 to 7.30

Moving on to the next compound: "CCn1cc(C(=O)Nc2ccc(Oc3ccnc4cc(OCCOC)c5c(c34)OCCO5)c(F)c2)c(=O)n(-c2ccc(F)cc2)c1=O"
≥ 7.30

###

# Tested on: Ba/F3 LMNA-NTRK1-G595R cells
# PROTOCOL TEXT: Assay for inhibiting the proliferation of Ba/F3 LMNA-NTRK1-G595R cells (CCK-8)
# Format: cell-based
# MEASUREMENT CONDITIONS: Mus musculus, BaF3
Measured IC50 by item

CC(C)n1cc(C(=O)Nc2ccc(Oc3ccnc4cc(OCCCN5CCCC5)c5c(c34)OCCO5)c(F)c2)c(=O)n(-c2ccc(F)cc2)c1=O : 200 to 1000 nM
CC(C)n1cc(C(=O)Nc2ccc(Oc3ccnc4cc(OCCO)c5c(c34)OCCO5)c(F)c2)c(=O)n(-c2ccc(F)cc2)c1=O : 50 to 200 nM
CCn1cc(C(=O)Nc2ccc(Oc3ccnc4cc(OCCOC)c5c(c34)OCCO5)cc2F)c(=O)n(-c2ccc(F)cc2)c1=O : 50 to 200 nM

Which measured IC50 belongs to "CC(=O)N1CCN(CCCOc2cc3nccc(Oc4ccc(NC(=O)c5cn(C(C)C)c(=O)n(-c6ccc(F)cc6)c5=O)cc4F)c3c3c2OCCO3)CC1" , tested on Ba/F3 LMNA-NTRK1-G595R cells?
200 to 1000 nM

And the next one, "CN1CCN(CCCOc2cc3nccc(Oc4ccc(NC(=O)c5cn(C)c(=O)n(-c6ccc(F)cc6)c5=O)cc4F)c3c3c2OCCO3)CC1" ?
200 to 1000 nM

# repeat for "CCOc1cc2nccc(Oc3ccc(NC(=O)c4cn(C)c(=O)n(-c5ccc(F)cc5)c4=O)c(Cl)c3)c2c2c1OCCO2"
≤ 50 nM
